- targetEntity: A2a-8M
- experimentDescription: SPR analysis of small molecule binding
- conditionSummary: read-out: SPR Kd
reportedProperty: pKd
Just the number, please; pKd means minus log10 of the concentration in mol/L.

Prompt line: Identify the reported pKd for the following entry. Nc1nc2c(cnn2CCc2ccccc2)c2nc(-c3ccco3)nn12
Response line: 7.85

* * *

- targetEntity: A2a-8M receptor (Homo sapiens, UniProt P29274, A54L/K122A/L202A/L235A/N154A/R107A/S277A/T88A/V239A)
- Sequence (P29274 1-316 A54L/T88A/R107A/K122A/N154A/L202A/L235A/V239A/S277A): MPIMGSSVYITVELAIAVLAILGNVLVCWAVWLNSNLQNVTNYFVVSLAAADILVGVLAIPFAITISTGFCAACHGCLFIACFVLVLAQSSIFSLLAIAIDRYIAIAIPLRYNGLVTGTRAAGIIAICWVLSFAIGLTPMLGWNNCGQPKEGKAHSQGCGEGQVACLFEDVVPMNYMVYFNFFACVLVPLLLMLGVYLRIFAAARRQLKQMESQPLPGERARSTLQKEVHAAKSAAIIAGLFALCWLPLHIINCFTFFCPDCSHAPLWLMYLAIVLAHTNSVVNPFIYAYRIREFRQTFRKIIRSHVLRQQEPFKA
- experimentDescription: Isothermal chemical denaturation
- conditionSummary: [L] = 2 μM; 25°C; 338 nm (SCH58261 at 316 nm); apo 2.90 (338 nm), 2.88 (316 nm)
reportedProperty: C½ (midpoint of denaturation curve) (M GuHCl)
Reply with just the number (in M GuHCl).

Prompt line: Identify the reported C½ (midpoint of denaturation curve) for the following entry. N#Cc1c(N)nc(SCc2ncc[nH]2)c(C#N)c1-c1ccc(O)cc1
Response line: 3.18

Prompt line: Identify the reported C½ (midpoint of denaturation curve) for the following entry. CCO/C(O)=C1\C(C)=NC(c2ccccc2)=C(C(=O)OCc2ccc([N+](=O)[O-])cc2)C1C#Cc1ccccc1 (centres unmarked)
Response line: 3.20

Prompt line: Identify the reported C½ (midpoint of denaturation curve) for the following entry. c1ccc(NCc2ccc(CNc3ccccn3)cc2)nc1
Response line: 2.98

Prompt line: Identify the reported C½ (midpoint of denaturation curve) for the following entry. CCCn1c(=O)[nH]c2nc(-c3ccc(S(=O)(=O)O)cc3)[nH]c2c1=O
Response line: 3.82

Prompt line: Identify the reported C½ (midpoint of denaturation curve) for the following entry. Cn1c(=O)c2c(ncn2C)n(C)c1=O
Response line: 3.28

* * *

- targetEntity: A2a-8M receptor (Homo sapiens, UniProt P29274, A54L/K122A/L202A/L235A/N154A/R107A/S277A/T88A/V239A)
- experimentDescription: Isothermal chemical denaturation
reportedProperty: pKd
Just the number, please; pKd means minus log10 of the concentration in mol/L.

Prompt line: Identify the reported pKd for the following entry. CCO/C(O)=C1\C(C)=NC(c2ccccc2)=C(C(=O)OCc2ccc([N+](=O)[O-])cc2)C1C#Cc1ccccc1 (stereo not shown) [MRS1334]
Response line: 5.26

* * *

- targetEntity: A2a-8M receptor (Homo sapiens, UniProt P29274, A54L/K122A/L202A/L235A/N154A/R107A/S277A/T88A/V239A)
- experimentDescription: Isothermal chemical denaturation
- conditionSummary: [L] = 21 μM; 25°C; 338 nm; apo 2.90
Counter-ions that a name gives are not always drawn.
Assign class by C½ (midpoint of denaturation curve): not lower than 3 M GuHCl means satisfied; lower than 3 M GuHCl means not satisfied.

Prompt line: Can CN1CCc2cccc(Cl)c2CC1.Cl [SKF86466 HCl] be said to have C½ (midpoint of denaturation curve) at or above 3 M GuHCl?
Response line: not satisfied

Prompt line: Can N=C(N)NC(=O)Cc1c(Cl)cccc1Cl [Guanfacine HCl] be said to have C½ (midpoint of denaturation curve) at or above 3 M GuHCl?
Response line: not satisfied

Prompt line: Can CCOc1nc2c(N)ncnc2n1CC be said to have C½ (midpoint of denaturation curve) at or above 3 M GuHCl?
Response line: satisfied

Prompt line: Can Nc1nc(SCCc2ccc(S(=O)(=O)O)cc2)nc2c1ncn2[C@@H]1O[C@H](CO)[C@@H](O)[C@H]1O be said to have C½ (midpoint of denaturation curve) at or above 3 M GuHCl?
Response line: not satisfied

Prompt line: Can Cl.Cl.OCCOCCN1CCN(Cc2cccc(Oc3ccccc3)c2)CC1 be said to have C½ (midpoint of denaturation curve) at or above 3 M GuHCl?
Response line: satisfied

Prompt line: Can CCCCC#Cc1nc(NC)c2ncn([C@@H]3O[C@H](CO)[C@@H](O)[C@H]3O)c2n1 be said to have C½ (midpoint of denaturation curve) at or above 3 M GuHCl?
Response line: not satisfied
